# STUDY SYSTEM: T1, Anti-CD28 Fab (SEQ ID NOs: 696, 697)
# T1 construct: In the phage ELISA the Fab was biotinylated and captured on neutravidin coated plates
# T1 sequence (VH, as listed by the source, chain 1 of 2): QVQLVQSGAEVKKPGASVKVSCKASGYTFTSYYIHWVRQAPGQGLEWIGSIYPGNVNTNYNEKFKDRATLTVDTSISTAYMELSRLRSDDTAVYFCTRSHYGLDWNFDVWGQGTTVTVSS
# T1 sequence (VL, as listed by the source, chain 2 of 2): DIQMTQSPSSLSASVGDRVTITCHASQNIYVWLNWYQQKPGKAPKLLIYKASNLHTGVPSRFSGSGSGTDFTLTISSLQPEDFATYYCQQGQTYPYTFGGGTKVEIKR
# ASSAY OVERVIEW: phage binding ELISA on captured anti-CD28 Fab, wells pre-incubated with CD28 antigen as competitor
For each of the binders below, state its Anti-CD28 Fab signal in the presence of CD28 (phage binding ELISA).
Numbers only.

[
  {
    "BINDER": "MCSAGAMYPWPLCL (Tested as clonal phage supernatant; not shown: fused to the pIII filament of the bacteriophage) [Phage-1435 (peptide-92 library clone, SEQ ID NO: 1731)]",
    "REPORTED": 0.07
  },
  {
    "BINDER": "LCKPGVPNSWPTCL (Tested as clonal phage supernatant; not shown: fused to the pIII filament of the bacteriophage) [Phage-1431 (peptide-92 library clone, SEQ ID NO: 1727)]",
    "REPORTED": 0.06
  }
]

As a next step, examine the binder that follows.
Anti-CD28 Fab signal in the presence of CD28 (phage binding ELISA) for TCAAGASYPWPACL (Tested as clonal phage supernatant; not shown: fused to the pIII filament of the bacteriophage) [Phage-1445 (peptide-92 library clone, SEQ ID NO: 1741)] ?
0.09
